# Tested on: primary oligodendrocyte and oligodendrocyte precursor cells (OL/OPCs)
# PROTOCOL DETAILS: Primary OPC culture differentiation (MBP immunostaining, DAPI)
# Type: cell-based, mouse
# Set-up: key: *: The level of production of myelin basic protein (MBP); ---: reduction of MBP
# REPORTED CONDITIONS: level of production of myelin basic protein in primary OPC/OL cultures
QUANTITY: %MBP+/DAPI

Report %MBP+/DAPI for N#Cc1cc(O)ccc1-n1nc2ccc(O)cc2c1Cl please.
---

Report %MBP+/DAPI for Oc1ccc(-n2nc3ccc(O)c(Cl)c3c2Cl)c(Cl)c1 please.
*

Report %MBP+/DAPI for Oc1ccc(-n2nc3ccc(O)cc3c2Cl)c(Br)c1 please.
*

Report %MBP+/DAPI for Oc1ccc(-n2nc3ccc(O)cc3c2Br)c(Br)c1 please.
*

* * *

# TARGET OR TEST SYSTEM: ERβ (Homo sapiens)
# Sequence (Q92731 whole entry, species assumed): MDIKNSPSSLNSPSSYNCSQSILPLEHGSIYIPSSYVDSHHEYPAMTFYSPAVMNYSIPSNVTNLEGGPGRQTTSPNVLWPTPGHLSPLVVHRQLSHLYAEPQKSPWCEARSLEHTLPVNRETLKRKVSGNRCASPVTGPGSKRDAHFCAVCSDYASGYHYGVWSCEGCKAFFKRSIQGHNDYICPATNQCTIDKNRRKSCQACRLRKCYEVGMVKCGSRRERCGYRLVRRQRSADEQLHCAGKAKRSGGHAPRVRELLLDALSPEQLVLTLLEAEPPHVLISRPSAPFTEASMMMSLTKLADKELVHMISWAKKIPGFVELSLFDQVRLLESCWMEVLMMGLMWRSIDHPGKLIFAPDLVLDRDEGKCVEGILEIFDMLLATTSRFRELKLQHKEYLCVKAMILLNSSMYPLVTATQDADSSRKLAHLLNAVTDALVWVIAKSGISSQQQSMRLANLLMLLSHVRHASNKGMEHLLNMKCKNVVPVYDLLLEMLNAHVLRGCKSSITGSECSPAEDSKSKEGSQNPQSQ
# PROTOCOL DETAILS: Relative binding affinity (RBA) to estrogen receptor beta, radiometric measurement
# REPORTED CONDITIONS: ratio of RBA ERβ to RBA ERα
QUANTITY: β/α Ratio
Write the value as a bare number.

Report β/α Ratio for N#Cc1cc(O)ccc1-n1nc2ccc(O)cc2c1Cl please.
15.7

Report β/α Ratio for Cc1cc(O)ccc1-n1nc2ccc(O)cc2c1I please.
7.0

Report β/α Ratio for Oc1ccc2nn(-c3ccc(O)c(F)c3)c(Cl)c2c1 please.
75.7

Further cases:
Report β/α Ratio for Oc1ccc(-n2nc3ccc(O)cc3c2Br)c(I)c1 please.
12.8

Report β/α Ratio for Cc1cc(-n2nc3ccc(O)cc3c2Cl)ccc1O please.
5.8

* * *

# TARGET OR TEST SYSTEM: ERβ (Homo sapiens)
# PROTOCOL DETAILS: Relative binding affinity (RBA) to estrogen receptor beta, radiometric measurement
# REPORTED CONDITIONS: ratio of RBA ERβ to RBA ERα
β/α Ratio below 10 gives condition not met; β/α Ratio at or above it gives condition met.

Kindly determine if β/α Ratio recorded for Oc1ccc(-n2nc3ccc(O)cc3c2I)c(Cl)c1 is above or exactly 10.
condition met

Kindly determine if β/α Ratio recorded for Oc1cc(Cl)c(-n2nc3ccc(O)c(Cl)c3c2Cl)c(Cl)c1 is above or exactly 10.
condition met

Kindly determine if β/α Ratio recorded for Oc1ccc(-n2nc3ccc(O)cc3c2Br)c(Br)c1 is above or exactly 10.
condition not met

Kindly determine if β/α Ratio recorded for C=Cc1c2cc(O)ccc2nn1-c1ccc(O)cc1Br is above or exactly 10.
condition met

Kindly determine if β/α Ratio recorded for Oc1ccc(-n2nc3ccc(O)cc3c2F)c(Br)c1 is above or exactly 10.
condition not met

Kindly determine if β/α Ratio recorded for Oc1ccc(-n2nc3ccc(O)cc3c2Br)c(Cl)c1 is above or exactly 10.
condition met

Kindly determine if β/α Ratio recorded for Oc1ccc(-n2nc3ccc(O)cc3c2Cl)c(C2SCCS2)c1 is above or exactly 10.
condition met

Kindly determine if β/α Ratio recorded for Oc1ccc(-c2c3cc(O)ccc3nn2-c2ccc(O)cc2)cc1 is above or exactly 10.
condition not met

We now examine a further compound.
Kindly determine if β/α Ratio recorded for Oc1ccc(-n2nc3ccc(O)cc3c2Cl)c(Cl)c1 is above or exactly 10.
condition met

* * *

# TARGET OR TEST SYSTEM: ERβ (Homo sapiens)
# PROTOCOL DETAILS: Relative binding affinity (RBA) to estrogen receptor beta, radiometric measurement
# REPORTED CONDITIONS: ratio of RBA ERβ to RBA ERα
QUANTITY: β/α Ratio
Write the value as a bare number.

Some solved cases for reference:
Report β/α Ratio for Oc1ccc(-n2nc3ccc(O)cc3c2I)c(Br)c1 please.
5.3

Report β/α Ratio for Oc1ccc(-n2nc3ccc(O)cc3c2F)c(Cl)c1 please.
4.0

Report β/α Ratio for Cc1cc(O)ccc1-n1nc2ccc(O)cc2c1F please.
3.4

Further cases:
Report β/α Ratio for Oc1ccc(-n2nc3ccc(O)cc3c2F)c(I)c1 please.
2.3

* * *

# TARGET OR TEST SYSTEM: ERβ (Homo sapiens)
# PROTOCOL DETAILS: Relative binding affinity (RBA) to estrogen receptor beta, radiometric measurement
# REPORTED CONDITIONS: relative value to 100% for E2 by radiometric measurement
QUANTITY: RBA ERβ
Number plus unit, in that order.

Report RBA ERβ for Oc1ccc(-n2nc3ccc(O)cc3c2F)c(Br)c1 [IndF-o-Br] please.
1.22%

Further cases:
Report RBA ERβ for Cc1cc(O)ccc1-n1nc2ccc(O)cc2c1F [IndF-o-Me] please.
0.37%

Report RBA ERβ for Oc1ccc(-n2nc3ccc(O)cc3c2Cl)c(C(F)(F)F)c1 [IndCl-o-CF3] please.
10.39%

Report RBA ERβ for Oc1cc(F)c(-n2cc3cc(O)ccc3n2)c(F)c1 [IndH-o-F2] please.
0.06%

Report RBA ERβ for Oc1ccc(-c2c3cc(O)ccc3nn2-c2ccc(O)cc2)cc1 [Ind-Ph-p-OH] please.
0.63%

Report RBA ERβ for Oc1ccc(-n2nc3ccc(O)cc3c2I)c(I)c1 [IndI-o-I] please.
2.5%

Report RBA ERβ for Oc1ccc(-n2nc3ccc(O)c(Cl)c3c2Cl)c(Cl)c1 [IndCl-o-Cl-4-Cl] please.
0.73%

Report RBA ERβ for Oc1ccc(-n2nc3ccc(O)cc3c2Br)c(Cl)c1 [IndBr-o-Cl] please.
16.12%

Report RBA ERβ for Cc1cc(-n2nc3ccc(O)cc3c2Cl)ccc1O [IndCl-m-Me] please.
0.74%

Report RBA ERβ for Oc1cc(F)c(-n2nc3ccc(O)c(Cl)c3c2Cl)c(F)c1 [IndCl-o-F2-4-Cl] please.
0.28%

Report RBA ERβ for Oc1ccc(-n2nc3ccc(O)cc3c2Br)c(I)c1 [IndBr-o-I] please.
6.28%

Report RBA ERβ for N#Cc1cc(O)ccc1-n1nc2ccc(O)cc2c1Cl [IndCl-o-CN] please.
0.77%

Report RBA ERβ for Oc1cc(Cl)c(-n2nc3ccc(O)c(Cl)c3c2Cl)c(Cl)c1 [IndCl-o-Cl2-4-Cl] please.
2.3%

Report RBA ERβ for Oc1ccc(-n2nc3ccc(O)cc3c2Cl)c(Cl)c1 [IndCl-o-Cl] please.
10.9%

Report RBA ERβ for Oc1ccc(-n2nc3ccc(O)cc3c2Cl)c(F)c1 [IndCl-o-F] please.
9.79%

Report RBA ERβ for Oc1ccc(-n2nc3ccc(O)cc3c2Br)c(Br)c1 [IndBr-o-Br] please.
5.84%

* * *

# Test system: primary OPCs/OLs
# PROTOCOL DETAILS: Primary OPC/OL differentiation and survival (O4, MOG, DAPI staining)
# Type: cell-based, mouse
# REPORTED CONDITIONS: vs vehicle-treated cells, FIG. 12B
QUANTITY: number of MOG+ OLs

Report number of MOG+ OLs for Cc1cc(O)ccc1-n1nc2ccc(O)cc2c1F please.
significant increase

Report number of MOG+ OLs for Oc1ccc(-n2nc3ccc(O)cc3c2Cl)cc1 please.
significant increase

Report number of MOG+ OLs for Cc1cc(O)ccc1-n1nc2ccc(O)cc2c1Br please.
significant increase

Report number of MOG+ OLs for Oc1ccc(-n2nc3ccc(O)cc3c2F)c(Br)c1 please.
significant increase

* * *

# TARGET OR TEST SYSTEM: ERα (Homo sapiens, UniProt P03372)
# Sequence (P03372 whole entry, species assumed): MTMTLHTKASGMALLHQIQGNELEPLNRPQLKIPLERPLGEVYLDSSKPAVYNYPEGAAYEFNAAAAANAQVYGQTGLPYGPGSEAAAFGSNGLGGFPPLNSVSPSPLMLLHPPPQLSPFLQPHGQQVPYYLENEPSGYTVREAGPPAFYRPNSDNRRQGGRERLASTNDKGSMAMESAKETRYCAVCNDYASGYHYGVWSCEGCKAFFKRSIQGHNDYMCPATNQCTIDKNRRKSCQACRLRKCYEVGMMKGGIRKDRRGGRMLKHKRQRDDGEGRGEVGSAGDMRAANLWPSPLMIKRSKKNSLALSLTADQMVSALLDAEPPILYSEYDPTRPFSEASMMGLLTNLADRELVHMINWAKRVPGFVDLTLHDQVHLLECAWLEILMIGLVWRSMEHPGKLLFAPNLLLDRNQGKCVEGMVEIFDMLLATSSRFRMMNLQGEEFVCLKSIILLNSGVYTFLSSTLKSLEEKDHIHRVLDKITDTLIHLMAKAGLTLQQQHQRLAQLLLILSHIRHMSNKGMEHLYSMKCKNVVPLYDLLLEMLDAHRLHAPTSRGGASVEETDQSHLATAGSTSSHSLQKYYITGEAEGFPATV
# PROTOCOL DETAILS: Relative binding affinity (RBA) to estrogen receptor alpha, radiometric measurement
# REPORTED CONDITIONS: relative value to 100% for E2 by radiometric measurement
Examples of molecules with documented RBA ERα follow.
Respond numerically; units are % and should not be typed.

Some solved cases for reference:
Report RBA ERα for Oc1ccc(-n2nc3ccc(O)cc3c2I)c(Br)c1 please.
1.25

Report RBA ERα for C=Cc1c2cc(O)ccc2nn1-c1ccc(O)cc1Br please.
0.54

Report RBA ERα for Oc1cc(F)c(-n2nc3ccc(O)c(Cl)c3c2Cl)c(F)c1 please.
0.076

Report RBA ERα for Oc1ccc(-n2nc3ccc(O)cc3c2F)c(I)c1 please.
0.27

Report RBA ERα for Oc1ccc(-n2nc3ccc(O)cc3c2I)c(I)c1 please.
0.37

Report RBA ERα for Oc1ccc2nn(-c3ccc(O)c(F)c3)c(Cl)c2c1 please.
0.14

Further cases:
Report RBA ERα for Oc1ccc(-n2nc3ccc(O)cc3c2Cl)c(C2SCCS2)c1 please.
0.18

Report RBA ERα for Oc1cc(Cl)c(-n2nc3ccc(O)c(Cl)c3c2Cl)c(Cl)c1 please.
0.11

Report RBA ERα for Oc1ccc(-n2nc3ccc(O)cc3c2Br)c(I)c1 please.
0.49

Report RBA ERα for OCc1cc(O)ccc1-n1nc2ccc(O)cc2c1Cl please.
0.13
